# Assayed System: T1, SCD1, released from the linker-cleaved SCD1-cyt b5 fusions (mouse, UniProt P13516 1-355)
# T1 construct: stearoyl-CoA desaturase-1 (SCD1), mouse, UniProt P13516; stands for the SCD1 chain of the fusion with full-length cyt b5 (wild type and TM mutants) and of the fusion with the soluble domain of cyt b5; the GFP tag stood at the C-terminus of the fusion; surmised: ENLYFQ is left at the C-terminus after cleavage
# T1 sequence (looked up): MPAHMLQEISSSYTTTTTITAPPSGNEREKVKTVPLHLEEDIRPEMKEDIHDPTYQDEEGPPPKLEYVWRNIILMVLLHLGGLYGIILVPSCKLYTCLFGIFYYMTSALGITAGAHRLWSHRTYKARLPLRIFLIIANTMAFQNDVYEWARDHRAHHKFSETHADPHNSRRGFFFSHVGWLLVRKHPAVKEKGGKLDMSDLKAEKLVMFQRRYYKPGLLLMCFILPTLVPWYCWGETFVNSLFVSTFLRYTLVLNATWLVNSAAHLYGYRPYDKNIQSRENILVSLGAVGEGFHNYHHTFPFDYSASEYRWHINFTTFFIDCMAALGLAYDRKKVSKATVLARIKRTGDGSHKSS
# Test Details: SEC; TM mutants in the linker-cleavable fusions, purified and cleaved by TEV protease; SRE-10C SEC-300 (Sepax) on HPLC, FPLC buffer, 0.75 mL/min; heme absorbance (413 nm by the results, 423 nm by the methods) gives the ratio of heterodimer to monomeric cyt b5
# Measurement Conditions: both partners purified
Measured Attribute: percent dissociation of the complex

[[record]]
binder = "cyt b5 R128A, released from the linker-cleaved SCD1-cyt b5-TEV chimera (natural protein, mouse, UniProt P56395 1-134, looked up, cytochrome b5, mouse, UniProt P56395; as m11 with the mutation; source: HEK 293S (BacMam), purified as a fusion with SCD1, cleaved by TEV protease; not shown: GFP, C-terminal, cleaved) MAGQSDKDVKYYTLEEIQKHKDSKSTWVILHHKVYDLTKFLEEHPGGEEVLREQAGGDATENFEDVGHSTDARELSKTYIIGELHPDDRSKIAKPSDTLITTVESNSSWWTNWVIPAISALAVALMYALYMAED"
obs_value = "~10%"

[[record]]
binder = "cyt b5 M126A, released from the linker-cleaved SCD1-cyt b5-TEV chimera (natural protein, mouse, UniProt P56395 1-134, looked up, cytochrome b5, mouse, UniProt P56395; as m11 with the mutation; source: HEK 293S (BacMam), purified as a fusion with SCD1, cleaved by TEV protease; not shown: GFP, C-terminal, cleaved) MAGQSDKDVKYYTLEEIQKHKDSKSTWVILHHKVYDLTKFLEEHPGGEEVLREQAGGDATENFEDVGHSTDARELSKTYIIGELHPDDRSKIAKPSDTLITTVESNSSWWTNWVIPAISALAVALAYRLYMAED"
obs_value = "~50%"

[[record]]
binder = "cyt b5 L121W, released from the linker-cleaved SCD1-cyt b5-TEV chimera (natural protein, mouse, UniProt P56395 1-134, looked up, cytochrome b5, mouse, UniProt P56395; as m11 with the mutation; source: HEK 293S (BacMam), purified as a fusion with SCD1, cleaved by TEV protease; not shown: GFP, C-terminal, cleaved) MAGQSDKDVKYYTLEEIQKHKDSKSTWVILHHKVYDLTKFLEEHPGGEEVLREQAGGDATENFEDVGHSTDARELSKTYIIGELHPDDRSKIAKPSDTLITTVESNSSWWTNWVIPAISAWAVALMYRLYMAED"
obs_value = "~40%"

[[record]]
binder = "cyt b5 A122W, released from the linker-cleaved SCD1-cyt b5-TEV chimera (natural protein, mouse, UniProt P56395 1-134, looked up, cytochrome b5, mouse, UniProt P56395; as m11 with the mutation; source: HEK 293S (BacMam), purified as a fusion with SCD1, cleaved by TEV protease; not shown: GFP, C-terminal, cleaved) MAGQSDKDVKYYTLEEIQKHKDSKSTWVILHHKVYDLTKFLEEHPGGEEVLREQAGGDATENFEDVGHSTDARELSKTYIIGELHPDDRSKIAKPSDTLITTVESNSSWWTNWVIPAISALWVALMYRLYMAED"
obs_value = "~40%"

[[record]]
binder = "cyt b5 L125W, released from the linker-cleaved SCD1-cyt b5-TEV chimera (natural protein, mouse, UniProt P56395 1-134, looked up, cytochrome b5, mouse, UniProt P56395; as m11 with the mutation; source: HEK 293S (BacMam), purified as a fusion with SCD1, cleaved by TEV protease; not shown: GFP, C-terminal, cleaved) MAGQSDKDVKYYTLEEIQKHKDSKSTWVILHHKVYDLTKFLEEHPGGEEVLREQAGGDATENFEDVGHSTDARELSKTYIIGELHPDDRSKIAKPSDTLITTVESNSSWWTNWVIPAISALAVAWMYRLYMAED"
obs_value = "~40%"


Please turn your attention to the following entry.
Data request: Please report the recorded percent dissociation of the complex for cyt b5 Y127A, released from the linker-cleaved SCD1-cyt b5-TEV chimera (natural protein, mouse, UniProt P56395 1-134, looked up, cytochrome b5, mouse, UniProt P56395; as m11 with the mutation; source: HEK 293S (BacMam), purified as a fusion with SCD1, cleaved by TEV protease; not shown: GFP, C-terminal, cleaved) MAGQSDKDVKYYTLEEIQKHKDSKSTWVILHHKVYDLTKFLEEHPGGEEVLREQAGGDATENFEDVGHSTDARELSKTYIIGELHPDDRSKIAKPSDTLITTVESNSSWWTNWVIPAISALAVALMARLYMAED .
Data returned: ~10%
